measurement.description: NCI Yeast Anticancer Drug Screen. Data for the rad50 strain (AID 155);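 further: 0% = growth of vehicle-only cultures of the same strain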
run.parameters: S. cerevisiae rad50 strain growth inhibition; at 5.0 µM (retest, dose inferred, filed as 0.5)
Compounds without any hit were thinned out: in the full panel of roughly 79,000, 15% have a hit. The source made the active and inactive calls. No stated cut-off is given here; in the data, active means growth inhibition above about 70%; inactive means the rest.
Parameter call: string, one of active, inactive

Worked examples follow.
CCCCCCCCCCCCCCNCCC(=O)O ... inactive
Cc1cc(NCCCN(C)C)c2cc3ccc4cccc5ccc(c2n1)c3c45 ... inactive
CC1COC(=O)O1 (stereo not drawn) ... inactive
O=C(O)CCCCCCCCCC[S+](CCO)CCO ... inactive
CCC[CH2][Sn]([CH2]CCC)([O]C(=O)C1CCC(=O)N1)[O]C(=O)C1CCC(=O)N1 (stereo not drawn) ... active

Q. Given CCCCCCCOC(=O)c1cc2cc(C(CC)C(CC)c3ccc(O)cc3)ccc2oc1=O (stereo not drawn) , state the outcome it received in this test.
A. inactive

Q. What was the test verdict on O=[N+]([O-])C(/C=C(\Cl)n1nnc2ccccc21)=C(/Cl)n1nnc2ccccc21 ?
A. inactive

Q. Look up the recorded call for CS(=O)(=O)n1c(C(O)c2ccccc2)nc2ccccc21 (stereo not drawn) in this test.
A. inactive

Q. Outcome logged for CC(=O)N(C1=C(Cl)C(=O)c2ccccc2C1=O)c1ccc([N+](=O)[O-])cc1 in this assay:
A. active

Q. Record request — test call for CCOC(=O)CN1CCCC(C(=O)CC2(O)C3(Cl)C4(Cl)C5(Cl)C(Cl)(Cl)C6(Cl)C4(Cl)C2(Cl)C6(Cl)C53Cl)C1 (stereo not drawn)
A. inactive

Q. Name the outcome recorded for Cc1cc(C)nc(NS(=O)(=O)c2ccc(NC(=O)c3cccnc3Nc3cccc(Cl)c3)cc2)n1 in the assay.
A. inactive

Q. // return assay outcome for COc1ccc2cc(CNCCCCCCCCNCc3ccc4cc(OC)ccc4c3)ccc2c1
A. inactive

Q. Write down the call the test reported for this compound. Item: COc1ccc(C2=C(Cl)C(=O)N(c3ccc(OC)cc3)C(=O)C2(Cl)Cl)cc1
A. inactive

Q. What was the test verdict on O=C(CCl)[O][Bi]([O]C(=O)CCl)([c]1ccccc1)([c]1ccccc1)[c]1ccccc1 ?
A. inactive

Q. Give the logged outcome of this assay for the following compound: NNc1ccc(Br)cc1
A. active

Q. Please indicate how the test categorized CN(C)c1ncnc2c1ncn2C .
A. inactive

Q. Which outcome did this test record for the compound O=c1cc(/C=C/c2ccccc2)cccc1O ?
A. active

Q. # fetch the recorded call for CCOC(=O)C(=O)CC(=O)C(Br)C(Br)c1ccc(Cl)cc1 (stereo not drawn) here
A. active

Q. Each compound tested received a call. Report the one for CN(C)c1ccc(/C=C/C(=O)c2ccc([N+](=O)[O-])cc2)cc1 .
A. inactive

Q. Field: outcome | Entry: N=C(N)c1ccc(Oc2ccc(Oc3ccc(C(=N)N)cc3)cc2)cc1
A. inactive

Q. Please indicate how the test categorized CCn1cnc2[nH]cc(C#N)c2c1=O .
A. inactive

Q. Entry O=C(Nc1ccc(Br)cc1)Oc1ccccc1C(=O)Nc1ccccc1 : call = ?
A. inactive

Q. Could you kindly confirm the outcome this assay logged for CCCCCN(CCCCC)CC(C)(C)C(O)c1ccc(OC)c2ccccc12 (stereo not drawn) ?
A. inactive

---

measurement.description: NCI Yeast Anticancer Drug Screen. Data for the sgs1 mgt1 strain (AID 161);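 further: 0% = growth of cultures given vehicle only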
run.parameters: S. cerevisiae sgs1 mgt1 strain, at 50.0 µM (retest, dose inferred, filed as 5.0)
The panel holds about 79,000 compounds, 15% with a hit somewhere; the sample as a whole holds those more often. The source made the active and inactive calls. Cut-off read from the data, not from the text of the source: active = growth inhibition above about 70%; inactive = the rest.
Reply using exactly one outcome from T (active), F (inactive)

CC(C)(C)c1cc(C2c3cc4c(cc3OC(O)(CO)C2C(=O)O)OCO4)cc(C(C)(C)C)c1O (configuration not stated) (tested in a mixture with another compound) ... F
Cc1ccc(O)c(C(c2ccc([N+](=O)[O-])cc2)c2cc(C)ccc2O)c1 ... F
c1ccc2c(c1)nc1cc(NC3CCCCC3)c(=NC3CCCCC3)cc-1n2C1CCCCC1 ... F
O=C1C(=O)C2CC3(CC1N2Cc1ccccc1)OCCO3 ... T

Q. Per the records of this test, what outcome belongs to COc1ccc(/C=C/c2ccnnc2)c(OC)c1OC ?
A. F

Q. What outcome does the record of this test show for Oc1c2c(c(O)c3ncccc13)C1C=CC2CC1 (configuration not stated) ?
A. T

Q. Record request — test call for O=C1CSC2(CCN(CCCN3c4ccccc4Sc4ccc(Cl)cc43)CC2)N1
A. F

Q. Query: recorded result category for OCc1cc2c([nH]c3ccccc32)c(C(O)CO)n1 (configuration not stated) in this test
A. F

Q. What was the test verdict on CCN(CC)CCC(=O)OC1C(C)=CC(C)C(=O)CC(C(C)CC2CCC(O)C(OC)C2)OC(=O)C2CCCCN2C(=O)C(=O)[C@@]2(O)OC(CCC2C)CC(OC)\C(C)=C/C=C/C=C/C(C)CC(C)C(=O)C1OC (some centres not stated) ?
A. T

Q. Outcome logged for Nc1cc(F)cc(F)c1[N+](=O)[O-] in this assay:
A. F

Q. Would you mind telling me which call this test gave C[Si](C)(C)CN1C(=O)c2ccccc2C1(O)c1ccccc1 (configuration not stated) ?
A. T

Q. Per the records of this test, what outcome belongs to CN(Cc1cnc2nc(N[Si](C)(C)C)nc(N[Si](C)(C)C)c2n1)c1ccc(C(=O)NC(CCC(=O)O[Si](C)(C)C)C(=O)O[Si](C)(C)C)cc1 (configuration not stated) ?
A. T

Q. How was O=c1c2cc3ccccc3cc2c(=O)n2n1CC=CC2 classified in this test?
A. F

Q. Look up the recorded call for C=C(CC)C[C@@H]1C[C@]2(C(=O)OC)c3[nH]c4ccccc4c3CCN2C1=O in this test.
A. T

Q. Fill in: this test's call for O=[N+]([O-])c1cc(C(F)(F)F)cc([N+](=O)[O-])c1CCl is ___
A. T

Q. // outcome(item) with item = Cc1cc(N)cc(C)c1-c1c(N)cc(Br)cc1Br
A. F

Q. Just curious, what result did O=C(Nc1cccc(Cl)c1)c1ccc([N+](=O)[O-])cc1 get here?
A. F

---

measurement.description: NCI Yeast Anticancer Drug Screen. Data for the sgs1 mgt1 strain (AID 161);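 further: 0% = growth of cultures given vehicle only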
run.parameters: S. cerevisiae sgs1 mgt1 strain, at 50.0 µM
The panel holds about 79,000 compounds, 15% with a hit somewhere; the sample as a whole holds those more often. Active and inactive are the calls of the source. Rule as the data show it: active = growth inhibition above about 70%; inactive = the rest.
Response enum: 1 for active, 0 for inactive

Consider the following illustrative entries.
CN(C)C(=S)NC(=S)Nc1ccc2ccccc2c1 ... 0
Cc1ccc2[nH]c3cc4ccncc4cc3c2c1 ... 0
Cc1ccc(Sc2ccc3ccccc3n2)cc1 ... 0
O=C(c1ccccc1)C(C(=O)c1ccccc1)c1ccc2ccccc2n1 ... 0
COc1cc(CNC(=O)CCCCCCCC/C=C/Br)ccc1O ... 1
COC(=O)/C(=C/C=C(c1ccccc1)c1ccccc1)N(C(C)=O)C(C)=O ... 1
O=C(Nc1ccccc1)OCCCCl ... 0
O=C1Oc2ccccc2C(=O)/C1=C/N1C(=O)/C(=C/c2ccccc2)NC1=S ... 1
CC12CC(Sc3ccccc3N1)c1ccccc1O2 (configuration not stated) ... 0
CCC(CC=C(C)C)(CC=C(C)C)c1ccncc1 (tested in a mixture with another compound) ... 1

Q. Hey, what did the test say about Cc1nn(C(=S)S)c(C)c1N=Nc1ccc(Br)cc1 ?
A. 1

Q. Which outcome was entered for the compound COc1ccc2nc3cc(Cl)ccc3c(Nc3nccs3)c2c1 in this test?
A. 1

Q. Please let me know the test result on file for CSC(=Nc1ccc(Cl)cc1)N1CC=Cc2ccccc21 .
A. 0

Q. Per the records of this test, what outcome belongs to BrCc1ccccc1C[P+](c1ccccc1)(c1ccccc1)c1ccccc1 ?
A. 1

Q. Could you check what this test reported for O=C(O)C(SC1=NNC2(C(=O)N1)c1ccccc1-c1ccccc12)SC1=NNC2(C(=O)N1)c1ccccc1-c1ccccc12 ?
A. 1

---

measurement.description: NCI Yeast Anticancer Drug Screen. Data for the mlh1 rad18 strain (AID 175)
run.parameters: S. cerevisiae mlh1 rad18 strain growth inhibition; at 5.0 µM (retest, dose inferred, filed as 0.5)
Compounds without any hit were thinned out: in the full panel of roughly 79,000, 15% have a hit. Active and inactive are the calls of the source. Rule as the data show it: active = growth inhibition above about 70%; inactive = the rest.
Select the correct class. Options are 1 (yes) (active), 0 (no) (inactive) and nothing else.

Use the examples below as a reference point.
CC(C)C(OC(=O)c1ccc(NCC2=CC(=O)C=CC2=O)cc1)C(C)C ... 0 (no)
COc1ccc(C(c2cc3c(cc2O)OCO3)N2CCOCC2)c(OC)c1OC (centres undefined) ... 0 (no)
CC/C(C)=C1\CCC(CN2CCOCC2)C1=O (centres undefined) ... 0 (no)
O=C1C(=O)C(Cl)=C(Cl)C(Cl)=C1Cl ... 0 (no)
CC(C)c1ccc(C2C3=C(N=C4SCC(=O)N42)C(=O)c2ccccc23)cc1 (centres undefined) ... 0 (no)

Q. Could you kindly confirm the outcome this assay logged for CCN1CCC(O)(/C=C/c2ccccc2C)C(C(=O)/C=C/c2ccccc2C)C1 (centres undefined) ?
A. 0 (no)

Q. Dear all, I need the recorded test outcome for CC1(c2ccc3ccccc3c2)C(C#N)(C#N)C1(C#N)C#N , thank you.
A. 1 (yes)

Q. Field: outcome | Entry: CCCCCOCC(=O)OC
A. 0 (no)

Q. How did this test come out for c1ccc2c(B(c3cccc4ccccc34)c3cccc4ccccc34)cccc2c1 ?
A. 0 (no)

Q. Give the logged outcome of this assay for the following compound: Cc1[nH]nc(C(=O)N/N=C/c2cccs2)c1N=NN(C)C
A. 1 (yes)

Q. Please indicate how the test categorized CCCCCCCCCCCCCCCC1=NCCN1C .
A. 0 (no)

Q. Which result was noted for this compound in the test: O=C(/C=C/c1ccccc1)NOC(=O)/C=C/c1ccccc1
A. 0 (no)

Q. I would be grateful if you could indicate the recorded call for O=C(OCCCN1CCCC1)C(c1ccccc1)C1CCCCC1 (centres undefined) .
A. 0 (no)

Q. Please indicate how the test categorized CCC(O)C(O)(c1ccccc1)c1nc2ccccc2s1 (centres undefined) .
A. 0 (no)

Q. I would be grateful if you could indicate the recorded call for Cc1ccc(C)c([N+](=O)[O-])c1 .
A. 0 (no)

Q. Look up the recorded call for O=C1OC(C2OC(=O)C(=O)C2C(=O)c2ccc(Cl)c(Cl)c2)C(C(=O)c2ccc(Cl)c(Cl)c2)C1=O (centres undefined) in this test.
A. 0 (no)

Q. Look up the recorded call for CC(C)(Br)C(=O)/C=C/c1ccc(Cl)cc1 in this test.
A. 1 (yes)

Q. Test call, this compound: COc1ccc(C2CC(c3c(O)ccc4ccccc34)=NN2)cc1OC (centres undefined)
A. 0 (no)

Q. How did this test come out for CCCCCCN(CCCCCC)P(=O)(N1CC1C)N1CC1C (centres undefined) ?
A. 0 (no)

Q. Recorded test outcome, item Nc1nc(N)c(C(=O)SCc2ccccc2)nc1Cl
A. 0 (no)

Q. Recorded call for CCOCCOC(=O)c1cc([N+](=O)[O-])cc([N+](=O)[O-])c1 ?
A. 0 (no)

src = PubChem BioAssay (NCI)
